# test.target: T1, human glucose-dependent insulinotropic polypeptide (GIP) receptor (human, UniProt P48546 22-466)
# T1 sequence (looked up): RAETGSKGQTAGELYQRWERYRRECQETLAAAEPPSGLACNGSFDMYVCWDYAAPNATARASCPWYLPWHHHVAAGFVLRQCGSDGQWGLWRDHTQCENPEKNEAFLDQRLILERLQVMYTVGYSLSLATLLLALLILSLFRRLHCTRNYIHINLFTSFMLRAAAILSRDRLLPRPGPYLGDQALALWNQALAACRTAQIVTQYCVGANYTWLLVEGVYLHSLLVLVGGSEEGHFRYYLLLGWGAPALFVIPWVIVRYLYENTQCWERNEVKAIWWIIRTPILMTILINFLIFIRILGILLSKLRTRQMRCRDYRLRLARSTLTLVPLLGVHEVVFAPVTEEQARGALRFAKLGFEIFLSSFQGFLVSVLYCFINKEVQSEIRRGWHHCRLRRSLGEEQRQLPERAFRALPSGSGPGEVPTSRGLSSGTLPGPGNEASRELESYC
# assay.procedure: cell-based or functional assay
readout.label: cAMP EC50

Ask: Recorded cAMP EC50 of YXEGTXTSDXSIXLDXKAQXEFIXXLIKGGPSSGAPPPS (Aib2, αMeF(2F)6, 2Nal10, αMeL13, Orn16, K17(Z), Aib20, D-Glu24, αMeY25, K28(Z), C-terminal NH2; Z = AEEA2-(γ-Glu)-(10-(4-carboxyphenoxy)decanoyl)) [Example 282] , please.
Result: 0.0193 nM

Ask: And the next one, YXEGTXTSDXSIXLDXIAQXKFIXXLIKGGPSSGAPPPS (Aib2, αMeF(2F)6, 2Nal10, αMeL13, Orn16, Aib20, K21(Z), D-Glu24, αMeY25, K28(Z), C-terminal NH2; Z = AEEA2-(γ-Glu)-CO-(CH2)12-CO2H) [Example 253] ?
Result: 0.0295 nM

Ask: And the next one, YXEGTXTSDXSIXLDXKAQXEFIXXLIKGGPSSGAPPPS (Aib2, αMeF(2F)6, OMeY10, αMeL13, Orn16, K17(Z), Aib20, D-Glu24, αMeY25, K28(Z), C-terminal NH2; Z = AEEA2-CO-(CH2)12-CO2H) [Example 266] ?
Result: 0.0136 nM
